protocol.text: Apparent clearance in male Sprague-Dawley rat at 10 mg/kg, po measured after 24 hrs by UPLC-MS/MS analysis
Assay type: ADME, organism-based
measurement.setup: in vivo, read-out: CL(app) (converted)
readout.type: CL/F

COc1cc2c(cc1OC)C(Cc1ccc(OS(=O)(=O)c3ccccc3[N+](=O)[O-])c(OC)c1)N(C)CC2 (stereo unspecified) yielded CL/F of 393 L/h/kg

====

System: Eca-109/VCR
protocol.text: Cytotoxicity against human Eca-109/VCR cells assessed as reduction in cell viability at 5.0 uM incubated for 48 hrs by CCK-8 assay relative to control
Assay type: functional
Cell viability (% of control) for assorted compounds
The response must be a number in % with no trailing unit.

# annotated cases, reported Cell viability (% of control) shown
COc1cc2c(cc1OC)C(Cc1ccc(OC)c(OCCCc3ccccc3)c1)N(C)CC2 (centres undefined)    96.9
COc1cc2c(cc1OC)C(Cc1ccc(OC)c(OCCc3ccccc3)c1)N(C)CC2 (centres undefined)    102.4
COc1cc2c(cc1OC)C(Cc1ccc(OC)c(OCc3ccc(Br)cc3)c1)N(C)CC2 (centres undefined)    97.8
COc1cc2c(cc1OC)C(Cc1ccc(OCc3ccccc3)c(OC)c1)N(C)CC2 (centres undefined)    101.4
C=CCCCCOc1cc(CC2c3cc(OC)c(OC)cc3CCN2C)ccc1OC (centres undefined)    98.2
COc1cc2c(cc1OC)C(Cc1ccc(OC)c(OS(=O)(=O)c3ccccc3)c1)N(C)CC2 (centres undefined)    102.6
COc1cc2c(cc1OC)C(Cc1ccc(OC)c(OCC(=O)OC(C)(C)C)c1)N(C)CC2 (centres undefined)    104.3
COc1cc2c(cc1OC)C(Cc1ccc(OC)c(OS(=O)(=O)Cc3ccccc3)c1)N(C)CC2 (centres undefined)    101.5

Attention now turns to another entry.
COC(=O)c1sccc1S(=O)(=O)Oc1cc(CC2c3cc(OC)c(OC)cc3CCN2C)ccc1OC (centres undefined) tested on Eca-109/VCR gave Cell viability (% of control): 100.7

====

Tested on: Eca-109/VCR
protocol.text: Cytotoxicity against human Eca-109/VCR cells assessed as reduction in cell viability at 5.0 uM incubated for 48 hrs by CCK-8 assay relative to control
Type: functional
readout.type: Cell viability (% of control) (%)
Entry rule: numbers only, all in %.

C=CCCCCOc1ccc(CC2c3cc(OC)c(OC)cc3CCN2C)cc1OC (stereo not drawn)    103.4
COc1cc2c(cc1OC)C(Cc1ccc(OCC3CCCCC3)c(OC)c1)N(C)CC2 (stereo not drawn)    87.7

Now for the compound whose Cell viability (% of control) we want.
Looking up COC(=O)c1sccc1S(=O)(=O)Oc1ccc(CC2c3cc(OC)c(OC)cc3CCN2C)cc1OC (stereo not drawn) , I found its Cell viability (% of control) recorded as 101.9

====

# Cell viability (% of control) listing for each entry below
System: Eca-109/VCR
protocol.text: Cytotoxicity against human Eca-109/VCR cells assessed as reduction in cell viability at 5.0 uM incubated for 48 hrs by CCK-8 assay relative to control
Type: functional
State just the number; it will be interpreted in %.

Would you please look over these solved cases?
CCCCCCCCOc1cc(CC2c3cc(OC)c(OC)cc3CCN2C)ccc1OC (configuration not stated)    95.3
COc1cc2c(cc1OC)C(Cc1ccc(OC)c(OCC3CC3)c1)N(C)CC2 (configuration not stated)    105.6
COc1cc2c(cc1OC)C(Cc1ccc(OCc3ccc(Br)cc3)c(OC)c1)N(C)CC2 (configuration not stated)    91.1
COc1cc2c(cc1OC)C(Cc1ccc(OS(=O)(=O)c3ccc4ccccc4c3)c(OC)c1)N(C)CC2 (configuration not stated)    84.7
COc1cc2c(cc1OC)C(Cc1ccc(OCCCc3ccccc3)c(OC)c1)N(C)CC2 (configuration not stated)    103.3

Lookup result for COc1cc2c(cc1OC)C(Cc1ccc(OC)c(OCC3CCC3)c1)N(C)CC2 (configuration not stated) ; measured Cell viability (% of control): 102.7

Cell viability (% of control) reported for this molecule COc1cc2c(cc1OC)C(Cc1ccc(OC)c(OCc3ccc(Cl)cc3Cl)c1)N(C)CC2 (configuration not stated) : 55.4

The value of Cell viability (% of control) measured for the molecule COc1cc2c(cc1OC)C(Cc1ccc(OC)c(OC(=O)c3ccc4ccccc4c3)c1)N(C)CC2 (configuration not stated) turned out to be 101.1

Noted for COc1cc2c(cc1OC)C(Cc1ccc(OC)c(OS(=O)(=O)c3ccccc3F)c1)N(C)CC2 (configuration not stated) : its Cell viability (% of control) reads 98.9

The molecule listed as COc1cc2c(cc1OC)C(Cc1ccc(OS(=O)(=O)Cc3ccccc3)c(OC)c1)N(C)CC2 (configuration not stated) has a reported Cell viability (% of control) of 102.6

Input COc1cc2c(cc1OC)C(Cc1ccc(OS(=O)(=O)c3ccc(C(F)(F)F)cc3)c(OC)c1)N(C)CC2 (configuration not stated) . Output Cell viability (% of control): 90.4

Lab book: Cell viability (% of control) of COc1cc2c(cc1OC)C(Cc1ccc(OCCc3ccccc3)c(OC)c1)N(C)CC2 (configuration not stated) noted as 104.2
